Data provenance is patent US20140056903A1.

# Measurement target: T1, human GFRα3 expressed with a C-terminal myc-myc-hexahistidine tag (human, UniProt O60609 32-374, biotinylated (sites not given) in ELISA format 2 and in the Octet cross-competition; not in SPR)
# T1 construct: also called hGFRα3-mmh; hGFRα3-mmH
# T1 sequence (O60609 other isoform, or with tags, fused parts or gaps limits assumed): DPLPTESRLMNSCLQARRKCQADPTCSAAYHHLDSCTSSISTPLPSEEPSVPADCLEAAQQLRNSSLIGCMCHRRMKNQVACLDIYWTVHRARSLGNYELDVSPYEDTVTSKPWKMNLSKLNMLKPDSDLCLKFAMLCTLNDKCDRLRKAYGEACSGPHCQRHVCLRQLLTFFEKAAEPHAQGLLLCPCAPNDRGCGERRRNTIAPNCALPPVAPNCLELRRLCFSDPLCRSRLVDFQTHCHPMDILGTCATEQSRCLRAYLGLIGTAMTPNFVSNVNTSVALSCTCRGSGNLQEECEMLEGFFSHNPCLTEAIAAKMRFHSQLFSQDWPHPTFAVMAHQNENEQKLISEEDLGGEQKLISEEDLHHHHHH
# Assay notes: SPR, Ab captured, 25C
Exercise: state measured pKd for each of the binders provided.
One number for each entry, as −log10 of the molar value.

Please state pKd for every binder in the list that follows.
1. H4H2352S (antibody, human IgG4, V domains shown, human IgG4 Fc (H4H); also called H4H2352S-1) VH: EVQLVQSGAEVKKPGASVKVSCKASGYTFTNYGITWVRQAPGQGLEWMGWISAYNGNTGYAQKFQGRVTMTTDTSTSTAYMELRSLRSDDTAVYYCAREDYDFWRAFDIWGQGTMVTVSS VL: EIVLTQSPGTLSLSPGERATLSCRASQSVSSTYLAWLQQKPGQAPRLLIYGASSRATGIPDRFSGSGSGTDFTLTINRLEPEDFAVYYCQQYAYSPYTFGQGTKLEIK
2. H4H2350P (antibody, human IgG4, V domains shown, human IgG4 Fc (H4H)) VH: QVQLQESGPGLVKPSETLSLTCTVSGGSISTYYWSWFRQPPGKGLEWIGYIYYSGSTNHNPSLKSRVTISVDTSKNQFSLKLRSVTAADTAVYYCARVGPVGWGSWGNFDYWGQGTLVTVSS VL: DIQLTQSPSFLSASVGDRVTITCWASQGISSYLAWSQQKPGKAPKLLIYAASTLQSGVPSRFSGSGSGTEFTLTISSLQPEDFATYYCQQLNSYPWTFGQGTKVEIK

output:
[10.09, 8.70]

input: # pKd lookup, item H1M2243N (antibody, V domains shown, chimeric, human variable and mouse constant domains (H1M)) VH: QVQLVQSGAEVKKPGASVKVSCKASGYTFTSYGIIWVRQAPGQGLEWMGWISGYNGNTNYTQNLQGRVTMTTDTSTTTAYMELRSLRSDDTAVYYCARWGIATRPYYYYGMDVWGQGTTVTVSS VL: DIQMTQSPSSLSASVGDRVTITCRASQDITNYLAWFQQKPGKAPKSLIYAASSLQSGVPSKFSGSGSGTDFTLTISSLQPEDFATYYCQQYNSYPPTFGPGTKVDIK
output: 8.69
